- Tested on: EKVX NSCLC
- Experiment description: NCI-60 one-dose screen, 48 h (100 = growth as untreated, 0 = no growth, -100 = all killed)
- Condition label: 10 µM unless noted
The panel holds about 83,000 compounds, 20% with a hit somewhere; the sample as a whole holds those more often.
Below, each of the compounds is paired with its reported growth value.
Just the number in %, nothing appended.

Below: 3 compounds and their reported growth.
Noted growth for COc1cc(/C=C/C(=O)N2CCN(C(=O)/C=C/c3cc(OC)c(OC)c(OC)c3)CC2)cc(OC)c1OC , tested on EKVX NSCLC: 114

Noted growth for Cc1ccc(-c2nc(C(Cl)Cl)n3nc(-c4ccccc4)cc3n2)cc1 , tested on EKVX NSCLC: 35.3

Noted growth for CC(C)CC1NC(C)(C)CO1 (centres undefined) , tested on EKVX NSCLC: 123

Turning now to a further record.
Noted growth for Nc1cccc(-c2nc3sccn3c2-c2ccnc(NCCCNS(=O)(=O)c3cccc4ccccc34)n2)c1 , tested on EKVX NSCLC: 56.7
